assay: Cytotoxicity against mouse B16F1 cells after 48 hrs by SRB assay; format: functional, cell-based; conditions: B16-F1, 48 h
parameter measured: IC50 (µg/mL)

compound | parameter measured | unit string | relation symbol | result value
COc1cc(C[C@@H](CO)[C@H](CO)Cc2ccc(O)c(OC)c2)ccc1O [(+)-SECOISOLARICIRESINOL] | IC50 | µg/mL | > | 40
COc1cc([C@H]2OC(=O)[C@H]3[C@@H]2CO[C@@H]3c2ccc(O)c(OC)c2)ccc1O | IC50 | µg/mL | = | 13
COc1cc(/C=C/C(=O)OC[C@H](Cc2ccc(O)c(OC)c2)[C@H](CO)Cc2ccc(O)c(OC)c2)ccc1O [HANULTARIN] | IC50 | µg/mL | = | 13
COc1cc([C@@H]2OC[C@@H]3[C@H]2CO[C@H]3c2ccc(O)c(OC)c2)ccc1O [(+)-PINORESINOL] | IC50 | µg/mL | > | 40
COc1cc(/C=C/C(=O)OC[C@H](Cc2ccc(O)c(OC)c2)[C@H](COC(=O)/C=C/c2ccc(O)c(OC)c2)Cc2ccc(O)c(OC)c2)ccc1O | IC50 | µg/mL | = | 12
